- System: K. pneumoniae
- EXPERIMENT NOTES: Single-step resistance selection
- Type: cell-based
- SETUP CONDITIONS: 4 × MIC, 48 h
MEASUREMENT LABEL: Single-step resistance frequency (mutation frequency)

COMPOUND: CCOC(=O)c1c(N)csc1-c1cn(-c2ccccc2)nc1-c1ccc(C)cc1 [Compound 7b]
RECORDED MEASUREMENT: 1.67 × 10^–7
--
COMPOUND: Cc1c(NN=C(C#N)C2=NC(=O)CS2)c(=O)n(-c2ccccc2)n1C [Compound 13]
RECORDED MEASUREMENT: 3.22 × 10^–8
--
COMPOUND: Cc1c(NC(=O)CC2=NC(=O)CS2)c(=O)n(-c2ccccc2)n1C [Compound 10]
RECORDED MEASUREMENT: 2.61 × 10^–8
--
COMPOUND: N#CC(=Cc1ccccc1O)C1=NC(=O)C(=Cc2cn(-c3ccccc3)nc2-c2ccccc2)S1 [Compound 5a]
RECORDED MEASUREMENT: 1.90 × 10^–8
